The origin of these recorded values is patent US12071437B1.

system: HCT116 (colon) cancer cells; experiment: In vitro cytotoxic activity MTT assay, HCT116; assay type: cell-based; conditions: Homo sapiens, HCT-116, 96 hours exposure, 50% inhibition of cell proliferation, read-out: Cytotoxicity activity IC50, HCT116 (colon)
measurement-kind: IC50 (nM)
Numeric answer only, unit nM assumed.

What value of IC50 has been recorded for this entry: O=C(O)c1cc2nc(Nc3cccc(Cl)c3)c3ccncc3n2n1 [Compound 1] 1600

====

tested on: MDA-MB-231 (breast) cancer cells; experiment: In vitro cytotoxic activity MTT assay, MDA-MB-231; assay type: cell-based; details: Homo sapiens; MDA-MB-231 cells, 96 hours exposure, 50% inhibition of cell proliferation; read-out: Cytotoxicity activity IC50, MDA-MB-231 (breast)
measurement-kind: pIC50
A value of pIC50 is the negative decimal logarithm of a concentration given in moles per litre.

What value of pIC50 has been recorded for this entry: O=C(O)c1cc2nc(Nc3cccc(Cl)c3)c3ccncc3n2n1 [Compound 1] 5.32
